system: Alopecurus myosuroides (ALOMY); test: Post-emergence herbicidal activity, glasshouse pot test; type: in vivo; details: Alopecurus myosuroides, 312 h, rate 250 g/ha, evaluated after 13 days, glasshouse, read-out: Post-emergence activity ALOMY (100=total damage to plant; 0=no damage to plant)

compound	pest or weed control at 250 g/ha
CCc1ccc(Oc2ccc(Cl)cc2F)cc1C1=C(O)CC2(CCOCC2)CC1=O	90%
CCc1ccc(Oc2ccc(Br)cc2F)cc1C1=C(O)CC(C)(C)CC1=O	90%
CCc1ccc(Oc2cc(OC)c(Cl)nn2)cc1C1=C(O)C(C)(C)OC(C)(C)C1=O	20%
CCc1ccc(Oc2nc3ccc(Cl)cc3[n+]([O-])n2)cc1C1=C(O)C(C)(C)OC(C)(C)C1=O	100%
CCc1ccc(Oc2nc3cc(OC)ccc3s2)cc1C1=C(O)C(C)(C)OC(C)(C)C1=O	60%
CCc1ccc(Oc2ccc(C#N)cc2F)cc1C1=C(O)C(C)(C)OC(C)(C)C1=O	100%
CCc1ccc(Oc2nc3c(Cl)cc(Cl)cc3s2)cc1C1=C(O)[C@H]2CC[C@H](C2)C1=O	80%
CCc1ccc(Oc2ccc(Br)cc2C)cc1C1=C(O)C(C)(C)OC(C)(C)C1=O	20%
CCc1ccc(Oc2nc3ccc(OC)cc3s2)cc1C1=C(O)C(C)(C)OC(C)(C)C1=O	100%
CCc1ccc(Oc2ccc(Cl)c(F)c2)cc1C1=C(O)[C@@H]2CC[C@](C)(C1=O)C2(C)C (single isomer, unassigned)	60%
CCc1ccc(Oc2ccc(Br)cc2F)cc1C1=C(O)[C@@H]2CC[C@](C)(C1=O)C2(C)C	70%
CCc1ccc(Oc2ccc3nc(Cl)cn3n2)cc1C1=C(O)C(C)(C)OC(C)(C)C1=O	70%
CCc1ccc(Oc2ncnc3sccc23)cc1C1=C(O)C(C)(C)OC(C)(C)C1=O	10%
CCc1ccc(Oc2ccc(C(F)(F)F)c(Cl)c2)cc1C1=C(O)[C@H]2CC[C@H](C2)C1=O	100%
CCc1ccc(Oc2ccc(C(F)(F)F)c(Cl)c2)cc1C1=C(O)C(C)(C)OC(C)(C)C1=O	100%
CCc1ccc(Oc2ncc(C(F)(F)F)cc2C(F)(F)F)cc1C1=C(O)C(C)(C)OC(C)(C)C1=O	90%

###

tested on: Alopecurus myosuroides (ALOMY); assay: Post-emergence herbicidal activity, glasshouse pot test; format: in vivo; settings: Alopecurus myosuroides, 312 h, rate 250 g/ha, evaluated after 13 days, glasshouse, read-out: Post-emergence activity ALOMY (100=total damage to plant; 0=no damage to plant)
Label scheme for pest or weed control at 250 g/ha: lower than 60% is not fulfilled, 60% and above is fulfilled.

compound	classification
CCc1ccc(Oc2nc3cc(Cl)ccc3s2)cc1C1=C(O)CC(C)(C)CC1=O	fulfilled
CCc1ccc(Oc2ccc(Cl)cc2F)cc1C1=C(O)CCCC1=O	not fulfilled
CCc1ccc(Oc2ccc(Br)c(C)c2)cc1C1=C(O)C(C)(C)OC(C)(C)C1=O	not fulfilled
CCc1ccc(Oc2ccc(C(F)(F)F)c(C#N)c2)cc1C1=C(O)C(C)(C)OC(C)(C)C1=O	fulfilled
CCc1ccc(Oc2cnc3cc(Cl)ccc3n2)cc1C1=C(O)[C@@H]2CC[C@](C)(C1=O)C2(C)C	fulfilled
CCc1ccc(Oc2ccc(Cl)c(Cl)c2)cc1C1=C(O)C(C)(C)OC(C)(C)C1=O	fulfilled
CCc1ccc(Oc2ccc(C#N)cc2C(F)(F)F)cc1C1=C(O)CC(C)(C)CC1=O	not fulfilled
CCc1ccc(Oc2ccc([N+](=O)[O-])c(C#N)c2)cc1C1=C(O)C(C)(C)OC(C)(C)C1=O	not fulfilled
CCc1ccc(Oc2ncc(Cl)cn2)cc1C1=C(O)C(C)(C)OC(C)(C)C1=O	fulfilled
CCc1ccc(Oc2nc3ccc(Cl)cc3s2)cc1C1=C(O)CC2(CCOCC2)CC1=O	fulfilled
CCc1ccc(Oc2ccc(Cl)cc2Br)cc1C1=C(O)C(C)(C)OC(C)(C)C1=O	fulfilled
CCc1ccc(Oc2ncc(C(F)(F)F)cc2Cl)cc1C1=C(O)CC2(CCOCC2)CC1=O	fulfilled
CCc1ccc(Oc2ccc(Cl)cc2)cc1C1=C(O)[C@H]2CC[C@H](C2)C1=O (single isomer, unassigned)	fulfilled
CCc1ccc(Oc2ccc(C#N)c(Cl)c2)cc1C1=C(O)[C@H]2CC[C@H](C2)C1=O	fulfilled
